The reported measurements were obtained from patent US20240166737A1.

# TARGET OR TEST SYSTEM: T1, CD3 epsilon on human T-cells (human, UniProt P07766 23-207)
# T1 construct: part of the TCR-CD3 complex on T cells; also called CD3 on T cells
# T1 sequence (P07766 23-207 limits assumed): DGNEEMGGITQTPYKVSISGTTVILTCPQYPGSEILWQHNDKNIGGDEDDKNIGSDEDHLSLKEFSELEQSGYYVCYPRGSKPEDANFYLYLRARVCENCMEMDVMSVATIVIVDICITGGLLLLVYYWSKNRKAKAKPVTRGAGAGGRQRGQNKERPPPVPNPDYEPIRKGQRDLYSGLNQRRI
# RUN DESCRIPTION: T cell binding
pEC50: −log10 of the molar value.
Exercise: state measured pEC50 for each of the binders provided.

What value of measured pEC50 is listed for CD3B2051-N106A (scFv, V domains shown, CD3 targeting scFv) VH: QVQLVQSGAEVKKPGSSVKVSCKASGYTFTRSTMHWVKQAPGQGLEWMGYINPSSAYTNYNQKFQGRVTLTADKSTSTAYMELSSLRSEDTAVYYCASPQVHYDYAGFPYWGQGTLVTVSS VL: EIVLTQSPATLSASPGERVTLSCSASSSVSYMNWYQQKPGQAPRRLIYDSSKLASGVPARFSGSGSGRDYTLTISSLEPEDFAVYYCQQWSRNPPTFGGGTKVEIK ?
7.00 to 7.30

Query CD3W245-LH-ScFv (scFv) scFv: DIQMTQSPSSLSASVGDRVTITCRARQSIGTAIHWYQQKPGKAPKLLIKYASESISGVPSRFSGSGSGTDFTLTISSLQPEDFATYYCQQSGSWPYTFGQGTKLEIKGGSEGKSSGSGSESKSTGGSEVQLVESGGGLVKPGGSLRLSCAASGFTFSRYNMNWVRQAPGKGLEWVSSISTSSNYIYYADSVKGRFTFSRDNAKNSLDLQMSGLRAEDTAIYYCTRGWGPFDYWGQGTLVTVSS next
7.30 to 7.70

Next: CD3W245-HL-ScFv (scFv) scFv: EVQLVESGGGLVKPGGSLRLSCAASGFTFSRYNMNWVRQAPGKGLEWVSSISTSSNYIYYADSVKGRFTFSRDNAKNSLDLQMSGLRAEDTAIYYCTRGWGPFDYWGQGTLVTVSSGGSEGKSSGSGSESKSTGGSDIQMTQSPSSLSASVGDRVTITCRARQSIGTAIHWYQQKPGKAPKLLIKYASESISGVPSRFSGSGSGTDFTLTISSLQPEDFATYYCQQSGSWPYTFGQGTKLEIK
8.52 to 9.00

Okay, and CD3B2030-N106A (scFv, V domains shown) VH: QVQLVQSGAEVKKPGSSVKVSCKASGYTFTRSTMHWVKQAPGQGLEWIGYINPSSAYTNYNQKFQGRVTLTADKSTSTAYMELSSLRSEDTAVYYCASPQVHYDYAGFPYWGQGTLVTVSS VL: EIVLTQSPATLSASPGERVTLSCSASSSVSYMNWYQQKPGQAPRRWIYDSSKLASGVPARFSGSGSGRDYTLTISSLEPEDFAVYYCQQWSRNPPTFGGGTKVEIK ?
7.00 to 7.30
